Data credit: patent US5834454A

target: Na^+ /H^+ exchange transport system (Rattus norvegicus); construct: isolated ventricular myocytes (rat); endogenous in cells; experiment: Inhibitory effect on the Na^+ /H^+ exchange transport system (in vitro), pH change in isolated ventricular myocytes under an acid load
Sequence (P26431 whole entry): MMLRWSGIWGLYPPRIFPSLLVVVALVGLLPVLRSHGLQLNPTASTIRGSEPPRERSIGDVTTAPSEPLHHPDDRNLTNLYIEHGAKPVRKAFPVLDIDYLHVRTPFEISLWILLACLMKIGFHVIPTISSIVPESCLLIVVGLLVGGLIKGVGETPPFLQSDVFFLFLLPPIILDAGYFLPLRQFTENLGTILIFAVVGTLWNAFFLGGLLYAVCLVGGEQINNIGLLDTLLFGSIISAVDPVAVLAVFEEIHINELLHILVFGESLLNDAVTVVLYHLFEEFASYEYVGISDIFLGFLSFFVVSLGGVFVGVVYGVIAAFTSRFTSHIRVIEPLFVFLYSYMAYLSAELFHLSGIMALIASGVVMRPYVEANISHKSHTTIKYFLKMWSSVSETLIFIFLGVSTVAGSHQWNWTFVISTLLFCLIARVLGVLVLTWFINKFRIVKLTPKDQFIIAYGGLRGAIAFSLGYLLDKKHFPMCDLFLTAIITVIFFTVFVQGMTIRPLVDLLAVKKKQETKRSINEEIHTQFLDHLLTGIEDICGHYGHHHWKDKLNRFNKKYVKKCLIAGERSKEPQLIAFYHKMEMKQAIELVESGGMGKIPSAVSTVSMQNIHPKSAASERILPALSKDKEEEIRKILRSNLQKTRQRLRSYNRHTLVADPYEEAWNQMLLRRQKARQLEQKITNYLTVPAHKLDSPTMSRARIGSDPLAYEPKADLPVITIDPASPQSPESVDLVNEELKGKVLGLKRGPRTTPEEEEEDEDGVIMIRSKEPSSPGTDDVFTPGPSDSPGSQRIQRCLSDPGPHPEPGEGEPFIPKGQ
EXPERIMENTAL_ENDPOINT: IC50 (nM)

• Cc1ccc2c3c1cc(C(=O)N=C(N)N)n3CCC2=O [Example 1, methanesulfonate] = 300

A. Cc1ccc2c3c1cc(C(=O)N=C(N)N)n3CCO2 [Example 2, methanesulfonate]
B. NC(N)=NC(=O)c1cc2cccc3c2n1CCC3 [Example 3, methanesulfonate]
## Input Record comparison, field IC50: mark the lower of A and B . Which one? Tell me its label.
## Output A
